Origin of values: patent US20250340649A1

Mean (MFI) for assorted binders
System under test: T1, HER2 on the surface of HER2+ cancer cells (BT474, SKOV-3) (human, UniProt P04626 23-1255)
T1 construct: whole, on cells; also called human epidermal growth factor receptor 2
Experimental protocol: flow cytometry on SKOV-3 cells (HER2+), 100 nM binding sites
API note: the answer field is a bare number with no unit suffix.

# example entries with known answers
A1 anti-HER2 VHH (VHH, Llama VHH expressed in WK6 E. coli with C-terminal c-myc and His tags; also called A1 clone) VHH: QVQLQESGGGLVQPGGSLRLSCAASGHTLSTYVVAWFRQAPGKERESVAAIGWSSRSPYYPDSVKGRFTISEDNTKNTVYLQMNSLKPDDTAVYYCAADSYPRRWDRESDFGSWGQGTQVTVSS    101000
D6 anti-HER2 VHH (VHH) VHH: QVQLQESGGGLVQAGGSLTLSCAASGRTFSTYVVGWFRQAPGKERESVAAIGWASNSPYYADSVKGRFTISRDNTKNTVYLQMKSLKPDDTAVYYCAADSYPRRWDRESDFGSWGQGTQVTVSS    89400
H7 anti-HER2 VHH (VHH) VHH: QVQLQESGGGLVQAGGSLRLSCAASGHTLSTYVVAWFRQAPGKERESVAAIGWSTRSPYYADSVKGRFTISEDNTKNTVYLQMNSLKPDDTAVYYCAADSYPRRWDRESDFGSWGQGTQVTVSS    99900

Consider the binder E5 anti-HER2 VHH (VHH, also called E5 clone) VHH: QVQLQESGGGLVQAGGSLRLDCAASGRTLSSYVVGWFRQAPGKEREVVAAIGWSRTSTFYTDSVKGRFTISRDNTENTVYLQMNSLKPGDTAVYYCAADSSPRRWDRESDFGSWGQGTQVTVSS and give its measured Mean (MFI). 106000

Endpoint output: Mean (MFI) of E9 anti-HER2 VHH (VHH) VHH: QVQLQESGGGSVQAGGSLKLSCAASGRTLSAYVVGWFRQAPGRERESVAAIGWSTHSVYYADSVKGRFTISRDNTENTVYLQMNSLKPDDTAVYYCAADSSPRRWDRESDFGSWGQGTQVTVSS . Value? 88100
